Answer each item with its documented shrunken log2 fold change.
tested on: Escherichia coli TOP10; test: shrunken log2 fold change of peptide-encoding DNA abundance (4.5 h post-induction vs induction); higher = less antimicrobial activity (less host growth inhibition); conditions: time post-induction: 4.5 h; library: site-saturation at positions 5, 18, 19, 20;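 also: peptides expressed intracellularly from a pBAD plasmid library in pooled LB shake-flask culture, induced with 0.3% L-arabinose, DNA abundance read by NGS, three biological replicates, DESeq2 with apeglm shrinkage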
One number for each entry.

| sequenceText | shrunken log2 fold change |
| --- | --- |
| RRIRQRPPRLPRPRPRPRLNPRP | -0.111 |
| RRIRYRPPRLPRPRPRPQKFPRP | -0.0224 |
| RRIRKRPPRLPRPRPRPYKTPRP | -0.227 |
| RRIRDRPPRLPRPRPRPVQEPRP | -0.0575 |

What value of shrunken log2 fold change has been reported for the following sequence? "RRIRNRPPRLPRPRPRPWDWPRP"
0.0265
